# System: 186277-243-T-J2-PDC complex spheroids, viability
# Assay: Anticancer human tumor 186277-243-T-J2-PDC patient-derived colon adenocarcinoma cell line growth inhibition [RAS]
# Stated Conditions: curve of first compound; second compound 0.316 µM
Observable: IC50

Molecule: Cc1nc(N2CCC3(CC2)COC(C)C3N)c(CO)nc1Sc1ccnc(N)c1Cl (stereo not given) + C=CC(=O)N1CCN(c2nc(OCC3CCCN3C)nc3c(F)c(-c4nc(N)cc(C)c4C(F)(F)F)c(Cl)cc23)C(C)C1
Assay Result: > 10000 nM

Molecule: C=CC(=O)Nc1cc(Nc2nccc(-c3cn(C)c4ccccc34)n2)c(OC)cc1N(C)CCN(C)C + C=CC(=O)N1CCN(c2nc(OCC3CCCN3C)nc3c(F)c(-c4nc(N)cc(C)c4C(F)(F)F)c(Cl)cc23)C(C)C1
Assay Result: > 1000 nM

Molecule: CC1(O)CCCC1n1c(=O)c(C(F)F)cc2cnc(NC3CCN(S(C)(=O)=O)CC3)nc21 (stereo not given) + C#Cc1c(F)ccc2cc(O)cc(-c3ncc4c(N5CC6CCC(C5)N6)nc(OCC56CCCN5CC(F)C6)nc4c3F)c12
Assay Result: < 31.6 nM

Molecule: CC(=O)OC12COC1CC(O)C1(C)C(=O)C(O)C3=C(C)C(OC(=O)C(O)C(NC(=O)OC(C)(C)C)c4ccccc4)CC(O)(C(OC(=O)c4ccccc4)C21)C3(C)C (stereo not given) + C=CC(=O)N1CCN(c2nc(OCC3CCCN3C)nc3c(F)c(-c4nc(N)cc(C)c4C(F)(F)F)c(Cl)cc23)C(C)C1
Assay Result: < 31.6 nM

Molecule: C=CC(=O)Nc1cc(Nc2nccc(-c3cn(C)c4ccccc34)n2)c(OC)cc1N(C)CCN(C)C + C#Cc1c(F)ccc2cc(O)cc(-c3ncc4c(N5CC6CCC(C5)N6)nc(OCC56CCCN5CC(F)C6)nc4c3F)c12
Assay Result: < 3.16 nM

Molecule: CCC(CC)c1cc(NC2CCC(N)C2)n2nccc2n1 (stereo not given) + C#Cc1c(F)ccc2cc(O)cc(-c3ncc4c(N5CC6CCC(C5)N6)nc(OCC56CCCN5CC(F)C6)nc4c3F)c12
Assay Result: < 31.6 nM

Molecule: CC(=O)OC12COC1CC(O)C1(C)C(=O)C(O)C3=C(C)C(OC(=O)C(O)C(NC(=O)OC(C)(C)C)c4ccccc4)CC(O)(C(OC(=O)c4ccccc4)C21)C3(C)C (stereo not given) + C#Cc1c(F)ccc2cc(O)cc(-c3ncc4c(N5CC6CCC(C5)N6)nc(OCC56CCCN5CC(F)C6)nc4c3F)c12
Assay Result: < 31.6 nM

Molecule: NC1c2ccccc2OC12CCN(c1cnc3c(N4CCCc5ncccc54)n[nH]c3n1)CC2 (stereo not given) + C=CC(=O)N1CCN(c2nc(OCC3CCCN3C)nc3c(F)c(-c4nc(N)cc(C)c4C(F)(F)F)c(Cl)cc23)C(C)C1
Assay Result: > 10000 nM

Molecule: O=C(c1ccc(F)c(F)c1Nc1ccc(I)cc1F)N1CC(O)([C@@H]2CCCCN2)C1 + C#Cc1c(F)ccc2cc(O)cc(-c3ncc4c(N5CC6CCC(C5)N6)nc(OCC56CCCN5CC(F)C6)nc4c3F)c12
Assay Result: < 3.16 nM

Molecule: CCc1c2c(nc3ccc(O)cc13)-c1cc3c(c(=O)n1C2)COC(=O)[C@]3(O)CC + C=CC(=O)N1CCN(c2nc(OCC3CCCN3C)nc3c(F)c(-c4nc(N)cc(C)c4C(F)(F)F)c(Cl)cc23)C(C)C1
Assay Result: 26.2 nM

====

# Tested on: 186277-243-T-J2-PDC complex spheroids, viability
# Assay: Anticancer human tumor 186277-243-T-J2-PDC cell line growth inhibition [RAS]; active = viability on the fitted dose curve at most 10% of control; inactive = the rest;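 further: spheroids exposed to compounds for 7 days before viability read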
# Stated Conditions: second compound 0.00949 µM; first compound 10 µM
Labels: true (active), false (inactive)

Compound: C[C@@H](NC(=O)c1ncnc(N)c1Cl)c1ncc(C(=O)Nc2cc(C(F)(F)F)c(Cl)cn2)s1 + CCn1c(-c2cc(N3CCN(C)CC3)cnc2C(C)OC)c2c3cc(ccc31)-c1csc(n1)CC(NC(=O)C1CC1C)C(=O)N1CCCC(N1)C(=O)OCC(C)(C)C2
Group: false

Compound: CC1(O)CCCC1n1c(=O)c(C(F)F)cc2cnc(NC3CCN(S(C)(=O)=O)CC3)nc21 (configuration not stated) + CCn1c(-c2cc(N3CCN(C)CC3)cnc2C(C)OC)c2c3cc(ccc31)-c1csc(n1)CC(NC(=O)C1CC1C)C(=O)N1CCCC(N1)C(=O)OCC(C)(C)C2
Group: true

====

In this section, each of the molecules is paired with its reported viability, T/C.
# System: 186277-243-T-J2-PDC complex spheroids, viability
# Assay: Anticancer human tumor 186277-243-T-J2-PDC cell line growth inhibition [RAS];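 further: spheroids exposed to compounds for 7 days before viability read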
# Stated Conditions: compound 0.0316 µM; stronger effect = lower value

Molecule: O=C(c1ccc(F)c(F)c1Nc1ccc(I)cc1F)N1CC(O)([C@@H]2CCCCN2)C1
viability, T/C: 94.1% [middle of 4 runs]
//
Molecule: Cc1nc(N2CCC3(CC2)COC(C)C3N)c(CO)nc1Sc1ccnc(N)c1Cl (stereo unspecified)
viability, T/C: 101% [middle of 4 runs]
//
Molecule: C#Cc1c(F)ccc2cc(O)cc(-c3ncc4c(N5CC6CCC(C5)N6)nc(OCC56CCCN5CC(F)C6)nc4c3F)c12 (stereo unspecified)
viability, T/C: 70% [middle of 8 runs]
//
Molecule: C[C@@H](NC(=O)c1ncnc(N)c1Cl)c1ncc(C(=O)Nc2cc(C(F)(F)F)c(Cl)cn2)s1
viability, T/C: 99.8% [middle of 4 runs]
//
Molecule: CC1(O)CCCC1n1c(=O)c(C(F)F)cc2cnc(NC3CCN(S(C)(=O)=O)CC3)nc21 (stereo unspecified)
viability, T/C: 108% [middle of 4 runs]
//
Molecule: Nc1ccn(C2OC(CO)C(O)C2(F)F)c(=O)n1 (stereo unspecified)
viability, T/C: 12% [middle of 4 runs]
//
Molecule: CC(C)NCC(C(=O)N1CCN(c2ncnc3c2C(C)CC3O)CC1)c1ccc(Cl)cc1 (stereo unspecified)
viability, T/C: 86% [middle of 4 runs]
//
Molecule: C=CC(=O)Nc1cc(Nc2nccc(-c3cn(C)c4ccccc34)n2)c(OC)cc1N(C)CCN(C)C
viability, T/C: 93.3% [middle of 4 runs]
//
Molecule: C=CC(=O)N1CCN(c2nc(OCC3CCCN3C)nc3c(F)c(-c4nc(N)cc(C)c4C(F)(F)F)c(Cl)cc23)C(C)C1 (stereo unspecified)
viability, T/C: 100% [middle of 12 runs]
//
Molecule: CCC(CC)c1cc(NC2CCC(N)C2)n2nccc2n1 (stereo unspecified)
viability, T/C: 98.2% [middle of 4 runs]
//
Molecule: CC(=O)OC12COC1CC(O)C1(C)C(=O)C(O)C3=C(C)C(OC(=O)C(O)C(NC(=O)OC(C)(C)C)c4ccccc4)CC(O)(C(OC(=O)c4ccccc4)C21)C3(C)C (stereo unspecified)
viability, T/C: 8.57% [middle of 4 runs]

====

# Test system: 186277-243-T-J2-PDC complex spheroids, viability
# Assay: Anticancer human tumor 186277-243-T-J2-PDC cell line growth inhibition [RAS];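 further: spheroids exposed to compounds for 7 days before viability read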
# Stated Conditions: second compound 0.316 µM; first compound 1 µM; stronger effect = lower value
Note to self: viability, T/C under 90% means Yes, ties and anything higher get No.

Compound: CC1(O)CCCC1n1c(=O)c(C(F)F)cc2cnc(NC3CCN(S(C)(=O)=O)CC3)nc21 (stereo not given) + C=CC(=O)N1CCN(c2nc(OCC3CCCN3C)nc3c(F)c(-c4nc(N)cc(C)c4C(F)(F)F)c(Cl)cc23)C(C)C1
Group: Yes
//
Compound: C=CC(=O)N1CCN(c2nc(OCC3CCCN3C)nc3c(F)c(-c4nc(N)cc(C)c4C(F)(F)F)c(Cl)cc23)C(C)C1 (stereo not given) + C#Cc1c(F)ccc2cc(O)cc(-c3ncc4c(N5CC6CCC(C5)N6)nc(OCC56CCCN5CC(F)C6)nc4c3F)c12
Group: Yes
//
Compound: O=C(c1ccc(F)c(F)c1Nc1ccc(I)cc1F)N1CC(O)([C@@H]2CCCCN2)C1 + C#Cc1c(F)ccc2cc(O)cc(-c3ncc4c(N5CC6CCC(C5)N6)nc(OCC56CCCN5CC(F)C6)nc4c3F)c12
Group: Yes
//
Compound: C[C@@H](NC(=O)c1ncnc(N)c1Cl)c1ncc(C(=O)Nc2cc(C(F)(F)F)c(Cl)cn2)s1 + C=CC(=O)N1CCN(c2nc(OCC3CCCN3C)nc3c(F)c(-c4nc(N)cc(C)c4C(F)(F)F)c(Cl)cc23)C(C)C1
Group: Yes
//
Compound: CCN1CCN(Cc2ccc(Nc3ncc(F)c(-c4cc(F)c5nc(C)n(C(C)C)c5c4)n3)nc2)CC1 + C=CC(=O)N1CCN(c2nc(OCC3CCCN3C)nc3c(F)c(-c4nc(N)cc(C)c4C(F)(F)F)c(Cl)cc23)C(C)C1
Group: No
